experiment: Pharmacokinetics test in male rats; format: in vivo, rat; details: rat, plasma, IV, 1 mg/kg
QUANTITY NAME: AUC(0-inf) (µM·h)
Give just the number in µM·h; leave the unit off.

Endpoint output: AUC(0-inf) of Cc1nc2c(c(C)c(C)n2Cc2cnn(C)c2)c(-c2ccc(Cl)cc2)c1[C@H](OC(C)(C)C)C(=O)O . Value?
6.51

---

assay: Liver microsomal stability, monkey; type: in vitro ADME; conditions: microsomes; monkey liver microsome, NADPH; read-out: Monkey liver (T1/2, Min)
QUANTITY NAME: half-life
Write the figure, then the unit, nothing else.

Give its half-life value. Item: C[C@]12CC[C@H]3[C@@H](CCC4=CC(=O)CC[C@@]43C)[C@@H]1CC[C@@H]2O [Testosterone, reference compound]
13 min

---

experiment: Liver microsomal stability, dog; assay type: in vitro ADME; conditions: liver microsomes; dog liver microsome, NADPH; read-out: Dog liver (T1/2, Min)
QUANTITY NAME: half-life

// lookup half-life for Cc1nc2c(c(C)c(C)n2Cc2cnn(C)c2)c(-c2ccc(Cl)cc2)c1[C@H](OC(C)(C)C)C(=O)O
> 145 min

---

assay: Pharmacokinetics test in male rats; assay type: in vivo, rat; details: rat, plasma, PO, 2 mg/kg
QUANTITY NAME: AUC(0-t)

Which AUC(0-t) is reported for this compound? Cc1nc2c(c(C)c(C)n2Cc2cnn(C)c2)c(-c2ccc(Cl)cc2)c1[C@H](OC(C)(C)C)C(=O)O
8.73 µM·h

---

assay: Liver microsomal stability, dog; type: in vitro ADME; settings: microsomes; dog liver microsome, NADPH; read-out: Dog liver (T1/2, Min)
QUANTITY NAME: half-life (min)
Report the figure in min without appending any unit label.

Would you kindly share the measured half-life for C[C@]12CC[C@H]3[C@@H](CCC4=CC(=O)CC[C@@]43C)[C@@H]1CC[C@@H]2O [Testosterone, reference compound] ?
23.6

---

assay: Pharmacokinetics test in male rats; assay type: in vivo, rat; conditions: rat, plasma, IV, 1 mg/kg
QUANTITY NAME: AUC(0-t) (µM·h)
Reply numerically in µM·h, unit not repeated.

I am curious: what AUC(0-t) value has been reported for Cc1nc2c(c(C)c(C)n2Cc2cnn(C)c2)c(-c2ccc(Cl)cc2)c1[C@H](OC(C)(C)C)C(=O)O ?
6.08

---

biological target: hERG K+ channel (Homo sapiens); assay: hERG K+ channel assay (Patch Clamp Recording Method); conditions: HERG-HEK293, automated planar patch clamp
Sequence (Q12809 whole entry): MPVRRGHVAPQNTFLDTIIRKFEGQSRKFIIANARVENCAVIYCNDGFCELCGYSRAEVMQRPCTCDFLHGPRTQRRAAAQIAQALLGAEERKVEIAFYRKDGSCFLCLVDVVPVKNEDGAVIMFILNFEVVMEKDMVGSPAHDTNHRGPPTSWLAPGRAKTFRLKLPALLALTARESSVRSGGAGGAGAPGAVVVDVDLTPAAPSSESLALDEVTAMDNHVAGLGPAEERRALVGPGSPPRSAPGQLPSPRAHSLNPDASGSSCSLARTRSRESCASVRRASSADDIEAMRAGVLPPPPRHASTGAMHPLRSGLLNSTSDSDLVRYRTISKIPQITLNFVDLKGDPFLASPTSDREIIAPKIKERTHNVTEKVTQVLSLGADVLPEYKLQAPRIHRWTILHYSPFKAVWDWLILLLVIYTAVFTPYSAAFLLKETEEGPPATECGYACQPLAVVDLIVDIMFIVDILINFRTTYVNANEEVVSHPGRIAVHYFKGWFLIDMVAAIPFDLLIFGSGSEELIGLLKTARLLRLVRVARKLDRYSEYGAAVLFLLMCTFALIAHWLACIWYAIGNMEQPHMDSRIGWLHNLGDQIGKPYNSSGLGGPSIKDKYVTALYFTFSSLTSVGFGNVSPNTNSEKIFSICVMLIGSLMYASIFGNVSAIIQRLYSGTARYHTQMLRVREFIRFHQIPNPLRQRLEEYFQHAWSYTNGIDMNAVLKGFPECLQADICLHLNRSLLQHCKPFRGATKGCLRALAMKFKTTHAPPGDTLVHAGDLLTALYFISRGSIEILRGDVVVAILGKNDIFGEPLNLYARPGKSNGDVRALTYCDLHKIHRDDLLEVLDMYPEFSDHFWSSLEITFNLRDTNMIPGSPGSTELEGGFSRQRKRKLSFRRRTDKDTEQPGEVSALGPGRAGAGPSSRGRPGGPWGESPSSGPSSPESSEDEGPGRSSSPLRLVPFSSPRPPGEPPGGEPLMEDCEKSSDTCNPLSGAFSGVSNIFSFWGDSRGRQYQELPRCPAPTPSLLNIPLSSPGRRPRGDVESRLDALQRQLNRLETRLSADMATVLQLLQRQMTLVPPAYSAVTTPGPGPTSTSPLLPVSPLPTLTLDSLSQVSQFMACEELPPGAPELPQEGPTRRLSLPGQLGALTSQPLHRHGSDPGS
QUANTITY NAME: IC50

Request: IC50, test system hERG K+ channel (Homo sapiens), entry Cc1nc2c(c(C)c(C)n2Cc2cnn(C)c2)c(-c2ccc(Cl)cc2)c1[C@H](OC(C)(C)C)C(=O)O
66.7 µM

---

system: Wild Type HIV-1(IIIB); assay: Inhibition of wild type HIV-1(IIIB) in MT-4 cells (MTT method); assay type: cell-based; conditions: Human immunodeficiency virus 1, MT4; Wild Type HIV-1(IIIB) in MT-4 Cells, MTT method; read-out: EC50: concentration of 50% inhibition of HIV infection
QUANTITY NAME: EC50 (nM)
Give the number; nM is assumed, so skip it.

EC50 for Cc1nn(C)c(Cl)c1Cn1c(C)c(C)c2c(-c3ccc(Cl)cc3)c([C@H](OC(C)(C)C)C(=O)O)c(C)nc21 [Example 2] ?
25.7

---

assay: Pharmacokinetics test in male rats; type: in vivo, rat; settings: rat, plasma, PO, 2 mg/kg
QUANTITY NAME: half-life

Find the recorded half-life belonging to Cc1nc2c(c(C)c(C)n2Cc2cnn(C)c2)c(-c2ccc(Cl)cc2)c1[C@H](OC(C)(C)C)C(=O)O and report it.
520 min

---

For each entry below, report its IC50 value.
tested on: HIV-1 Clone 8070_1; experiment: Inhibition of HIV-1 clone 8070_1 (Raltegravir resistance mutant); format: cell-based; conditions: Human immunodeficiency virus 1
Numeric only. Scale: nM

Returns the measured IC50 for the input molecule. Input: C[C@@H]1CCO[C@H]2Cn3cc(C(=O)NCc4ccc(F)cc4F)c(=O)c(O)c3C(=O)N12
8.5

Quick one: IC50 for Cc1nc2c(c(C)c(C)n2Cc2cnn(C)c2)c(-c2ccc(Cl)cc2)c1[C@H](OC(C)(C)C)C(=O)O ?
0.9

Record request: IC50 value, item Cc1nnc(C(=O)NC(C)(C)c2nc(C(=O)NCc3ccc(F)cc3)c(O)c(=O)n2C)o1
4320

---

system: Wild Type HIV-1(IIIB); assay: Inhibition of wild type HIV-1(IIIB) in MT-4 cells (MTT method); type: cell-based; details: Human immunodeficiency virus 1, IIIB, MT4, read-out: EC50: concentration of 50% inhibition of HIV infection
Record form. Attribute: EC50. Fill in for each entry.
Just the number in nM, nothing appended.

Which EC50 reading was recorded for the compound Cc1nnc(C(=O)NC(C)(C)c2nc(C(=O)NCc3ccc(F)cc3)c(O)c(=O)n2C)o1 ?
5.85

Requested field: EC50. Item: Cc1nc2c(c(C)c(C)n2Cc2cnn(C)c2)c(-c2ccc(Cl)cc2)c1[C@H](OC(C)(C)C)C(=O)O
3.23

---

assay: Liver microsomal stability, human; format: in vitro ADME; conditions: liver microsomes; human liver microsome, NADPH; read-out: Human liver (T1/2, Min)
QUANTITY NAME: half-life

What does the data say about its half-life? Entry: Cc1nc2c(c(C)c(C)n2Cc2cnn(C)c2)c(-c2ccc(Cl)cc2)c1[C@H](OC(C)(C)C)C(=O)O
136 min

---

test: Pharmacokinetics test in male rats; format: in vivo, rat; details: rat, plasma, IV, 1 mg/kg
QUANTITY NAME: clearance (mL/min/kg)
A number alone suffices; assume mL/min/kg.

Param item = Cc1nc2c(c(C)c(C)n2Cc2cnn(C)c2)c(-c2ccc(Cl)cc2)c1[C@H](OC(C)(C)C)C(=O)O ; retrieve measured clearance.
5.38

---

assay: Pharmacokinetics test in male rats; type: in vivo, rat; settings: rat, plasma, PO, 2 mg/kg
QUANTITY NAME: Tmax (h)
Please state the figure in h; there is no need to write the unit.

Return reported Tmax; argument: Cc1nc2c(c(C)c(C)n2Cc2cnn(C)c2)c(-c2ccc(Cl)cc2)c1[C@H](OC(C)(C)C)C(=O)O
3.2

---

Assay: Liver microsomal stability, rat
Format: in vitro ADME
Conditions: liver microsomes; rat liver microsome, NADPH; read-out: Rat liver (T1/2, Min)
Protocol: The in vitro metabolic stability test was conducted for the compound of Example 1 of the present invention. In order to confirm in vitro metabolic stability, liver microsomal half-life of the compound was observed. A drug compound was reacted with NADPH using a species-specific (rat, dog, monkey, and human) liver microsome containing various metabolizing enzymes, and then half-life of the drug was determined by quantifying with LC-MS/MS in minutes.
QUANTITY NAME: half-life

// lookup half-life for Cc1nc2c(c(C)c(C)n2Cc2cnn(C)c2)c(-c2ccc(Cl)cc2)c1[C@H](OC(C)(C)C)C(=O)O [Example 1]
> 145 min
